Target: IRAK4 (Homo sapiens)
Construct: endogenous in cells; host or cells: THP-1 cells
Sequence (Q9NWZ3 1-460): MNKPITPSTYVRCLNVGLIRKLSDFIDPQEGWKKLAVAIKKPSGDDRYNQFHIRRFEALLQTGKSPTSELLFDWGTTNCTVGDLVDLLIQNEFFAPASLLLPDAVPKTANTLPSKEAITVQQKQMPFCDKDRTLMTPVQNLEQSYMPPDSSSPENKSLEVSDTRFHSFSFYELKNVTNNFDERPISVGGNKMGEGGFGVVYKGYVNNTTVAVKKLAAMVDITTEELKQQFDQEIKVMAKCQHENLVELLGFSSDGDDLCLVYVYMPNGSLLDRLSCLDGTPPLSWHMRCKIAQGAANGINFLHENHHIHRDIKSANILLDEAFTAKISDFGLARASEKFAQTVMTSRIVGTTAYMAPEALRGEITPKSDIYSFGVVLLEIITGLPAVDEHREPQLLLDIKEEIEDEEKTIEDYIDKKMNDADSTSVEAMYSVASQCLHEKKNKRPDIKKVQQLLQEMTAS
Assay: ALE THP1 HTRF (Advanced Lipoxidation End Product THP1 Homogeneous Time Resolved Fluorescence)
Type: cell-based
Settings: THP1 cells
Assay metric: ALE THP1 HTRF YMIN (%)

Compound	Units	ALE THP1 HTRF YMIN
N#Cc1cnc2c(cnn2-c2cc(NC3CCCC3)c(C(=O)NC3CCC(CCN4CCN(c5ccc(C6CCC(=O)NC6=O)cc5)CC4)CC3)cn2)c1 (stereo not drawn) [P-35]	%	8.4

P. C[C@H](C#N)Nc1cc(-n2ncc3cc(C#N)c(N)nc32)ncc1C(=O)N[C@H]1CC[C@H](CCN2CCN(c3ccc(C4CCC(=O)NC4=O)cn3)[C@H](C)C2)CC1 (stereo partly drawn) [P-166]
Q. CC(C)(C)Nc1cc(-n2ncc3cc(C#N)cnc32)ncc1C(=O)NC1CCC(C(=O)N2CCN(c3ccc4c(c3)C(=O)N(C3CCC(=O)NC3=O)C4)CC2)CC1 (stereo not drawn) [P-26]
Problem: // compare: P vs Q , metric ALE THP1 HTRF YMIN, want the smaller Label of pick, please.
Result: P
(P: 8.1%, Q: 22.3%)

* * *

Molecular target: IRAK4 (Homo sapiens)
Construct: endogenous in cells; host or cells: THP-1 cells
Sequence (Q9NWZ3 1-460): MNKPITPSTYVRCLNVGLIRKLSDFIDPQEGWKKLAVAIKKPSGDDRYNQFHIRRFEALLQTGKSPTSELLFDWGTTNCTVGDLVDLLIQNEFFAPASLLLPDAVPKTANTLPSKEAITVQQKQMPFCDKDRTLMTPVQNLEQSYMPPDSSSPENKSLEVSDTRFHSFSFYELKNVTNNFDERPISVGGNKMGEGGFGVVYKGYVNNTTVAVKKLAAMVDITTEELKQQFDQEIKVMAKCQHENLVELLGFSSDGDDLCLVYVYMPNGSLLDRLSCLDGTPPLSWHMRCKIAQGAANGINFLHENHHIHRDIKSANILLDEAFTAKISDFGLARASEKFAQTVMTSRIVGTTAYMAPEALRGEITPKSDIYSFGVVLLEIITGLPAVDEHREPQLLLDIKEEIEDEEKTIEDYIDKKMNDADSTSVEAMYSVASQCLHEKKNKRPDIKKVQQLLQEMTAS
Test: ALE THP1 HTRF (Advanced Lipoxidation End Product THP1 Homogeneous Time Resolved Fluorescence)
Format: cell-based
Conditions: THP1 cells
Assay metric: ALE THP1 HTRF YMIN (%)

Molecule	System name	ALE THP1 HTRF YMIN / %
N#Cc1cnc2c(cnn2-c2cc(NC3CCCC3)c(-c3cn([C@H]4CC[C@H](CN5CCC(CNc6ccc(C7CCC(=O)NC7=O)cc6)CC5)CC4)nn3)cn2)c1 (stereo partly drawn)	IRAK4 (Homo sapiens)	38.8
N#Cc1cnc2c(ccn2-c2cc(NC3CC3)c(C(=O)NC3CCC(CCN4CCN(c5ccc(C6CCC(=O)NC6=O)cc5)CC4)CC3)cn2)c1 (stereo not drawn)	IRAK4 (Homo sapiens)	10.9
N#Cc1cnc2c(cnn2-c2cc(NC3(C#N)CC3)c(C(=O)N[C@H]3CC[C@H](CCN4CCN(c5ccc(C6CCC(=O)NC6=O)cc5)CC4)CC3)cn2)c1 (stereo partly drawn)	IRAK4 (Homo sapiens)	10.4
CS(=O)(=O)N1CCC(Nc2cc(-n3ncc4cc(C#N)c(N)nc43)ncc2C(=O)N[C@H]2CC[C@H](CCN3CCN(c4ccc(C5CCC(=O)NC5=O)cc4)CC3)CC2)CC1 (stereo partly drawn)	IRAK4 (Homo sapiens)	6.9

P. CC1(Nc2cc(-n3ncc4cc(C#N)cnc43)ncc2-n2cc([C@H]3CC[C@H](CCN4CCN(c5ccc(C6CCC(=O)NC6=O)cc5)CC4)CC3)nn2)CC1 (stereo partly drawn)
Q. N#Cc1cnc2c(cnn2-c2cc(NC3CC3)c(C(=O)N[C@H]3CC[C@H]([C@@H]4C[C@H]4N4CCN(c5ccc(C6CCC(=O)NC6=O)cc5)CC4)CC3)cn2)c1 (relative stereo)
R. CS(=O)(=O)N1CCC(Nc2cc(-n3ncc4cc(C#N)cnc43)ncc2-n2cc([C@H]3CC[C@H](CCN4CCN(c5ccc(C6CCC(=O)NC6=O)cc5)CC4)CC3)nn2)CC1 (stereo partly drawn)
Problem: Order by ALE THP1 HTRF YMIN, ascending. Answer format: list of labels, ordered as asked.
Result: P, Q, R
(P: 6.4%, Q: 15.6%, R: 31.2%)

* * *

Biological target: IRAK4 (Homo sapiens, UniProt Q9NWZ3)
Construct: endogenous in cells; host or cells: THP-1 cells
Assay: LVL THP1 HTRF (THP1 Homogeneous Time Resolved Fluorescence)
Type: cell-based
Settings: THP1 cells, 18 h incubation with compound
Assay metric: LVL THP1 HTRF YMIN (%)

Compound	System name	Units	Measured result
C[C@H](C#N)Nc1cc(-n2ncc3cc(C#N)cnc32)ncc1-n1cc([C@H]2CC[C@H](CCN3CCC(c4ccc(N5CCC(=O)NC5=O)nc4)CC3)CC2)nn1 [P-341]	IRAK4 (Homo sapiens, UniProt Q9NWZ3)	%	81.8
CC1CN(CC[C@H]2CC[C@H](c3cn(-c4cnc(-n5ncc6cc(C#N)cnc65)cc4N[C@H](C)C#N)nn3)CC2)CCC1c1ccc([C@@]2(F)CCC(=O)NC2=O)cc1 (single isomer, unassigned) [P-390]	IRAK4 (Homo sapiens, UniProt Q9NWZ3)	%	−1.8
C[C@H](C#N)Nc1cc(-n2ncc3cc(C#N)cnc32)ncc1-n1cc([C@H]2CC[C@H](CCN3CCN(c4ccc([C@@]5(C)CCC(=O)NC5=O)nc4)[C@@H](C)C3)CC2)nn1 (single isomer, unassigned) [P-290]	IRAK4 (Homo sapiens, UniProt Q9NWZ3)	%	33.6
C[C@H](C#N)Nc1cc(-n2ncc3cc(C#N)cnc32)ncc1-n1cc([C@H]2CC[C@H](CCN3CC[C@@H](Oc4ccc(N5CCC(=O)NC5=O)cc4)C3)CC2)nn1 [P-458]	IRAK4 (Homo sapiens, UniProt Q9NWZ3)	%	15.0
C[C@H](C#N)Nc1cc(-n2ncc3cc(C#N)cnc32)ncc1-n1cc([C@H]2CC[C@H](CCN3CCN(c4ccc(N5CCC(=O)NC5=O)c(F)c4)CC3)CC2)nn1 [P-365]	IRAK4 (Homo sapiens, UniProt Q9NWZ3)	%	2.0

I. C[C@H](C#N)Nc1cc(-n2ncc3cc(C#N)cnc32)ncc1-n1cc([C@H]2CC[C@H](CCN3CCN(c4ncc(N5CCC(=O)NC5=O)s4)CC3)CC2)nn1 [P-372]
II. C[C@H](C#N)Nc1cc(-n2ncc3cc(C#N)c(N)nc32)ncc1-n1cc([C@H]2CC[C@H](CCN3[C@@H](C)CN(c4ccc([C@@]5(C)CCC(=O)NC5=O)cn4)C[C@@H]3C)CC2)nn1 (single isomer, unassigned) [P-252]
III. C[C@H](C#N)Nc1cc(-n2ncc3cc(C#N)cnc32)ncc1-n1cc([C@H]2CC[C@H](CCN3CC[C@H]4[C@@H]3CN4c3ccc(N4CCC(=O)NC4=O)cc3)CC2)nn1 (single isomer, unassigned) [P-494]
IV. C[C@H](C#N)Nc1nc(-n2ncc3cc(C#N)cnc32)ncc1-n1cc([C@H]2CC[C@H](CCN3CCN(c4ccc(C5CCC(=O)NC5=O)cc4)CC3)CC2)nn1 (stereo partly shown) [P-377]
Problem: Put the items in sequence by LVL THP1 HTRF YMIN, from largest down. Give the labels in the order requested.
Result: I, III, IV, II
(I: 40.1%, III: 21.2%, IV: 3.4%, II: 1.7%)

* * *

Biological target: IRAK4 (Homo sapiens)
Construct: endogenous in cells; host or cells: THP-1 cells
Experiment: ALE THP1 HTRF (Advanced Lipoxidation End Product THP1 Homogeneous Time Resolved Fluorescence)
Type: cell-based
Conditions: THP1 cells
Assay metric: ALE THP1 HTRF YMIN (%)

Molecule	ALE THP1 HTRF YMIN, %
CC1(Nc2cc(-n3ncc4cc(C#N)cnc43)ncc2C(=O)NC2CCC(C(=O)N3CCN(c4ccc5c(c4)C(=O)N(C4CCC(=O)NC4=O)C5)CC3)CC2)CC1 (stereo not drawn) [P-25]	20.1

I. N#Cc1cnc2c(cnn2-c2cc(NC3CCCC3)c(C(=O)N[C@H]3CC[C@H](CNC4CCN(c5ccc(C6CCC(=O)NC6=O)cc5)CC4)CC3)cn2)c1 (stereo partly drawn) [P-29]
II. CC(C)(C)Nc1cc(-n2ncc3cc(C#N)cnc32)ncc1C(=O)NC1CCC(CCN2CCN(c3ccc(C4CCC(=O)NC4=O)cc3)CC2)CC1 (stereo not drawn) [P-83]
Problem: Given the listed records, identify the one among I and II with higher ALE THP1 HTRF YMIN. Answer format: the label of the selected item.
Result: I
(I: 14.1%, II: 8.1%)
